Attribute: Test B disease control rating
Test system: Puccinia recondita f. sp. tritici
METHOD: Test B: wheat leaf rust, preventive spray on wheat seedlings, visual disease rating
ASSAY CONDITIONS: 200 ppm; 100 = 100 % disease control, 0 = no disease control relative to controls
Lab book: enter the figure in %, no units written.

Per the record, CN1O[C@](C)(c2cccnc2)C[C@@H]1c1ccc(Cl)cc1 (relative stereo) has Test B disease control rating of 0

Per the record, CN1OC(C)(c2cccnc2)CC1c1ccc(-c2ccn(CC(F)(F)F)n2)cc1 (mixture of isomers) has Test B disease control rating of 0

Per the record, COc1cc(Br)ccc1C1CC(C)(c2cccnc2)ON1C (stereo not shown) [Compound 86] has Test B disease control rating of 9

Per the record, CN1OC(C)(c2cccnc2)CC1c1ccc(F)c(F)c1 (stereo not shown) [Compound 81] has Test B disease control rating of 0

Per the record, CN1OC(c2cccnc2)(C(F)(F)F)CC1c1ccc(-c2ccccc2)cc1 (racemic) [Compound 24] has Test B disease control rating of 45

Per the record, CN1OC(C)(c2cccnc2)CC1c1cccc(I)c1 (mixture of isomers) has Test B disease control rating of 0

Continuing:
Per the record, CN1OC(C)(c2cccnc2)CC1c1ccc(Oc2ccccc2)cc1 (racemic) [Compound 9] has Test B disease control rating of 82

Per the record, CN1OC(C)(c2cccnc2)CC1c1ccc(Oc2ccc(F)cc2)cc1 (racemic) [Compound 20] has Test B disease control rating of 92

Per the record, CN1OC(c2cccnc2)(C(F)(F)F)CC1c1ccc(-c2ccccc2)cc1 (racemic) [Compound 23] has Test B disease control rating of 0

Per the record, CN1OC(C)(c2cccnc2)CC1c1ccc(Br)cc1F (stereo not shown) has Test B disease control rating of 0
